# measurementTarget: ProfilerPro Kinase Selectivity Assay Kit kinases (Homo sapiens, UniProt Q9P0L2)
# Type: biochemical
# conditionSummary: MARK1; 1 μM compound concentration
quantityKind: POC (Percent of control) MARK1
Answer with the value and then the unit.

1) Cc1nc(-c2cccnc2Nc2cccc3[nH]ncc23)c2nc[nH]c2n1 [Example 57] : 99 POC
2) Cc1cnc(Nc2cccc3[nH]ccc23)c(-c2nc(C)nc(N)n2)c1 [Example 46] : 102 POC

Please examine the following record next.
For ProfilerPro Kinase Selectivity Assay Kit kinases (Homo sapiens, UniProt Q9P0L2), provide POC (Percent of control) MARK1 of COc1ccc(Nc2ncccc2-c2ncnc3[nH]cnc23)cn1 [Example 20] please.
108 POC
